Please go through the items and note down their pIC50.
- study_target: T1, recombinant biotinylated human PAR2 extracellular domain (residues 1-75), N-terminal AviTag, C-terminal Flag … (human, UniProt P55085 26-75, biotin on the AviTag (enzymatic biotinylation))
- T1 construct: also called Bio-human-PAR2 ECD; human PAR2 ECD; not shown: N-terminal AviTag (Avidity LLC); C-terminal Flag and poly Histidine tags
- T1 sequence (P55085 26-75): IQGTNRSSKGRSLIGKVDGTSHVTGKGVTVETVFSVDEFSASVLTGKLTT
- assay_protocol: HTRF competition with Par0067 IgG, pH 6.0, scFv
One number for each entry, as −log10 of the molar value.

- PaB670095 scFv (scFv, V domains shown, purified scFv; also called ZZ1ODS-H05) VH: EVQLLESGGGLVQPGGSLRLSCAASGFTFSSYAMNWVRQAPGKGLEWVSTISYHGHHISYADSHHHRFTISRDNSKNTLYLQMNSLRAEDTAVYYCARINNDPMDVWGQGTLVTVSS VL: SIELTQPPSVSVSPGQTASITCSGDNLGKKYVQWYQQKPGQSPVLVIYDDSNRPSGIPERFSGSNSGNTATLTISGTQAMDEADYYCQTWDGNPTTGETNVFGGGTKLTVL: 6.95
- PaB670093 scFv (scFv, V domains shown, purified scFv; also called ZZ1ODR-H04) VH: EVQLLESGGGLVQPGGSLRLSCAASGFTFSSYAMNWVRQAPGKGLEWVSTISYHHHLISHADSVKGRFTISRDNSKNTLYLQMNSLRAEDTAVYYCARINNDPMDVWGQGTLVTVSS VL: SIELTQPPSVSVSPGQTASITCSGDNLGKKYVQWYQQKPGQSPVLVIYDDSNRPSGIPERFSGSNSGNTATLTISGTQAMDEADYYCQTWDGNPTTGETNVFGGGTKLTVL: 7.23

Next, consider the following binder.
Request: Record request: pIC50 value, item PaB670048 scFv (scFv, V domains shown, purified scFv; also called ZZ1KX4-E11) VH: EVQLLESGGGLVQPGGSLRLSCAASGFTFSSYAMNWVRQAPGKGLEWVSTISYSGSLISYADSVKGRFTISRDNSKNTLYLQMNSLRAEDTAVYYCARIHHDPMDHWGQGTLVTVSS VL: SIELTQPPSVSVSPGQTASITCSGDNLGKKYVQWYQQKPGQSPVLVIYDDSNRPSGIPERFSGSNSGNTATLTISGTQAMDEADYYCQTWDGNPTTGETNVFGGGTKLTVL
Response: 6.86

Hey, just so you know, these numbers are from patent US20180305450A1.
